tested on: MDA-MB-453; experiment: drug sensitivity score (DSS), CellTiter-Blue viability (DSS (AUC-based score)); higher = stronger viability inhibition; extreme values may be limits of the assay; conditions: incubation time: 72 h
Given measured drug sensitivity score, output true (1) if it is greater than or equal to 4 and false (0) if not.

Request: Identify whether the reported drug sensitivity score of the following molecule is 4 or greater: CC(C)(C)c1cc(NC(=O)Nc2ccc(-c3cn4c(n3)sc3cc(OCCN5CCOCC5)ccc34)cc2)no1 [Quizartinib]
Response: false (0)

Request: Now consider COc1cccc2c1C(=O)c1c(O)c3c(c(O)c1C2=O)C[C@@](O)(C(C)=O)C[C@@H]3O[C@H]1C[C@H](N)[C@H](O)[C@H](C)O1 [Daunorubicin] and answer again.
Response: false (0)

New cases:
Request: Identify whether the reported drug sensitivity score of the following molecule is 4 or greater: COc1ccc(C2=N[C@@H](c3ccc(Cl)cc3)[C@@H](c3ccc(Cl)cc3)N2C(=O)N2CCNC(=O)C2)c(OC(C)C)c1 [Nutlin-3]
Response: false (0)

Request: Now consider CCOc1cc2ncc(C#N)c(Nc3ccc(OCc4ccccn4)c(Cl)c3)c2cc1NC(=O)/C=C/CN(C)C [Neratinib] and answer again.
Response: true (1)

Request: Now consider C[C@@]1(C(=O)Nc2ccc(F)nc2)CCCN1c1nc(Nc2cc(C3CC3)n[nH]2)c2cccn2n1 and answer again.
Response: true (1)

Request: Now consider COC1=C2C[C@@H](C)C[C@H](OC)[C@H](O)[C@@H](C)/C=C(\C)[C@H](OC(N)=O)[C@@H](OC)/C=C\C=C(/C)C(=O)NC(=CC1=O)C2=O [Geldanamycin] and answer again.
Response: true (1)
